molecular target: T1, hCTLA4-His-BAP (human CTLA4 extracellular region with C-terminal His-tag and BAP-tag) (human, biotin on the BAP-tag); experiment: SPR 37C, hCTLA4 1000 nM, no ATP; no ATP; binding amount at 1000 nM hCTLA4
T1 construct: also called hCTLA4-His-Biotin
T1 sequence (chain, as listed by the source limits assumed): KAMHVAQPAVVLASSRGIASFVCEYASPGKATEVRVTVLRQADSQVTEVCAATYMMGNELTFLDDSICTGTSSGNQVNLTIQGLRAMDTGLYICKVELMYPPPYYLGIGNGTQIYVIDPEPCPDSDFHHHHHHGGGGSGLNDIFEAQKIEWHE
The entries below come with measured Binding to Human CTLA4 values attached.

- binder: "04H1208-G1m/04L1086-lam1 (antibody, human IgG1, lambda, V domains shown) VH: EVQLVESGGGLVKPGGSLRLSCAASGFTFSSKTMNWVRQAPGKGLEWVSSISTRSGYIYYARSVKGRFTISRDNAKNSLYLQMNSLRAEDTAVYYCARYGKREDMLWVFDYWGQGTLVTVSS VL: QSALTQPPSASGSPGQTVTISCDGPSTGVGDYNYVHWYQQHPGKAPKLMIYFTSKKPSGVPDRFSGSKSGNTASLTVSGLQAEDEADYFCQTYAAPLGPMFGGGTKLTVLG"
  recorded metric: "Binding to Human CTLA4"
  reported: "0.005 per unit amount of antibody"

get_value(item= 04H1077-G1m/04L1041-lam1 (antibody, human IgG1, lambda, V domains shown) VH: EVQLVESGGDLVKPGGGLRLSCAASGFTFSSRTMNWVRQAPGKGLEWVSSISTRSGYIYYAESVKGRFTISRDNAKNSLYLQMNSLRAEDTAVYYCARYGKREDMLWVFDYWGQGTLVTVSS VL: QSALTQPPSASGSPGQTVTISCDGPSTDVGDYNYVHWYQQHPGKAPKLMIYFTSKKPSGVPDRFSGSKSGNTASLTVSGLQAEDEADYFCSTYAAPLGPMFGGGTKLTVLG , readout=Binding to Human CTLA4) returns 0.006 per unit amount of antibody

get_value(item= 04H1077-G1m/04L1067-lam1 (antibody, human IgG1, lambda, V domains shown) VH: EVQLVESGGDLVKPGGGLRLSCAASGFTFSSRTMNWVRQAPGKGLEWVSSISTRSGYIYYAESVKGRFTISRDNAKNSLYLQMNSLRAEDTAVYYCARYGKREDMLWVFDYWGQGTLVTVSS VL: QSALTQPPSASGSPGQTVTISCDGPSTGVGDYNYVHWYQQHPGKAPKLMIYFTSKKPSGVPDRFSGSKSGNTASLTVSGLQAEDEADYFCSTYAAPLGPMFGGGTKLTVLG , readout=Binding to Human CTLA4) returns 0.012 per unit amount of antibody

get_value(item= 04H1207-G1m/04L1086-lam1 (antibody, human IgG1, lambda, V domains shown) VH: EVQLVESGGGLVKPGGSLRLSCAASGFTFSSKTMNWVRQAPGKGLEWVSSISTRSGYIYYAESVKGRFTISRDNAKNSLYLQMNSLRAEDTAVYYCARYGKREDMLWVFDYWGQGTLVTVSS VL: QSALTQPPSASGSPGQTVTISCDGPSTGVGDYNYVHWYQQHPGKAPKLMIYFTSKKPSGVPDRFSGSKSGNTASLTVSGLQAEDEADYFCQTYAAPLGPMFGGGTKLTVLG , readout=Binding to Human CTLA4) returns 0.013 per unit amount of antibody

get_value(item= 04H1077-G1m/04L1034-lam1 (antibody, human IgG1, lambda, V domains shown) VH: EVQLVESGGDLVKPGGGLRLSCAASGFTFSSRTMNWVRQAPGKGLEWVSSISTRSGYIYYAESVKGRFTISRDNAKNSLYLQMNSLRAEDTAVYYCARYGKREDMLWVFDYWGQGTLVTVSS VL: QSALTQPPSASGSPGQTVTISCDGPSTDVGDYNWVSWYQQHPGKAPKLMIYFTSKKPSGVPDRFSGSKSGNTASLTVSGLQAEDEADYFCSTYAAPLGPMFGGGTKLTVLG , readout=Binding to Human CTLA4) returns 0.004 per unit amount of antibody

get_value(item= 04H1077-G1m/04L1086-lam1 (antibody, human IgG1, lambda, V domains shown) VH: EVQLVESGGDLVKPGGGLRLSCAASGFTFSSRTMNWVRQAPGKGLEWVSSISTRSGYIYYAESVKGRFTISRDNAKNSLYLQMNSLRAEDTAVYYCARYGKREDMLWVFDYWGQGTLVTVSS VL: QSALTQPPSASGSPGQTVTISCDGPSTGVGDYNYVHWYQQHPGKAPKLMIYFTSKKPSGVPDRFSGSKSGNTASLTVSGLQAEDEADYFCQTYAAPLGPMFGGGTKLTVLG , readout=Binding to Human CTLA4) returns 0.01 per unit amount of antibody
